assay: clinical; settings: both, human, plasma, oral, 0.6 mg, AUC0-∞, Median, median of N = 21, single 0.6 mg colchicine
Readout Name: AUC(0-inf) (ng·h/mL)
Numbers only, in ng·h/mL.

For the compound shown here, `COc1cc2c(c(OC)c1OC)-c1ccc(OC)c(=O)cc1[C@@H](NC(C)=O)CC2` , give the reported AUC(0-inf).
10.4

====

test: clinical; settings: both, human, plasma, oral, 0.6 mg, t1/2, Mean, mean of N = 21, single 0.6 mg colchicine
Readout Name: half-life
Please make sure the unit comes right after the number.

For the molecule shown here, `COc1cc2c(c(OC)c1OC)-c1ccc(OC)c(=O)cc1[C@@H](NC(C)=O)CC2` , give the reported half-life.
4.64 h

====

assay: clinical; conditions: both, human, plasma, oral, 0.6 mg, AUC0-∞, Least Squares Mean, Non-Transformed Data, single 0.6 mg colchicine dose
Readout Name: AUC(0-inf)
Please make sure the unit comes right after the number.

For the compound shown here, `COc1cc2c(c(OC)c1OC)-c1ccc(OC)c(=O)cc1[C@@H](NC(C)=O)CC2` , give the reported AUC(0-inf).
11.1 ng·h/mL

====

assay: clinical; settings: both, human, plasma, oral, 0.6 mg, Cmax, Least Squares Mean, Non-Transformed Data, single 0.6 mg colchicine dose
Readout Name: Cmax (ng/mL)
One number for each entry, in ng/mL.

For the compound shown here, COc1cc2c(c(OC)c1OC)-c1ccc(OC)c(=O)cc1[C@@H](NC(C)=O)CC2 [Treatment A] , give the reported Cmax.
2.17

The measurements presented in this section are drawn from patent US20110046228A1.
